These entries and their values trace back to paper PMC9263996.

assay_target: UniProt A0A1I9HZN3
Sequence (A0A1I9HZN3 1-169): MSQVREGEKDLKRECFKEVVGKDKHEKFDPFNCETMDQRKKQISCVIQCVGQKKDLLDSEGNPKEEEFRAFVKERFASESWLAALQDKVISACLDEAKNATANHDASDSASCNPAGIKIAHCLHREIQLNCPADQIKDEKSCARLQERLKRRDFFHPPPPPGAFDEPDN
assay_name: Competitive fluorescence-binding assay with 1-NPN probe, recombinant MaltOBP24
condition_details: MaltOBP24 Ki (dissociation constant), pH7.4; 1-NPN competition; mean ± SEM
measurement_kind: Ki (µM)

Would you please look over these solved cases?
- compound: "C=C1C2CCC(C2)C1(C)C (centres unmarked)"
  assay_target: "UniProt A0A1I9HZN3"
  Ki, µM: 22.1
- compound: "C=CC(=C)CCC=C(C)C"
  assay_target: "UniProt A0A1I9HZN3"
  Ki, µM: 24.3

a: C=C1CC[C@H]2O[C@]2(C)CC[C@@H]2[C@@H]1CC2(C)C [(−)-caryophyllene oxide]
b: CC1=CCC2C(C1)C2(C)C (centres unmarked)
Q) Please compare: a and b . Report which one has the smaller Ki value. Indicate which entry you chose by stating its label.
A) b
(b: 3.31 µM, a: 24.2 µM)

----------
assay_target: DhelOBP10 (Dastarcus helophoroides)
Sequence (A0A1I9HZP4 20-220): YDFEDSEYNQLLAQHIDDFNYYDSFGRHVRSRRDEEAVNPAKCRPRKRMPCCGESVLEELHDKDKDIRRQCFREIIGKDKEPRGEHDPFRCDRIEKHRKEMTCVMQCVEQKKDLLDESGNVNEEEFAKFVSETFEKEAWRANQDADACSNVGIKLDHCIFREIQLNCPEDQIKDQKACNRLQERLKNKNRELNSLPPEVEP
assay_name: Fluorescence-quenching spectra assay, DhelOBP10
Type: binding
condition_details: change of Ksv with temperature 289–298 K, neutral pH
measurement_kind: quenching mechanism of the interaction with DhelOBP10

- compound: "CC1=CCC2C(C1)C2(C)C (stereo not shown)"
  assay_target: "DhelOBP10 (Dastarcus helophoroides)"
  reported_measurement: "static quenching"
- compound: "CC1=CCC(=C(C)C)CC1"
  assay_target: "DhelOBP10 (Dastarcus helophoroides)"
  reported_measurement: "static quenching"
- compound: "C=C(C)[C@H]1CC=C(C)CC1 [R-(+)-limonene]"
  assay_target: "DhelOBP10 (Dastarcus helophoroides)"
  reported_measurement: "static quenching"

----------
assay_target: UniProt:A0A1I9HZP4
assay_name: Fluorescence-quenching spectra assay, DhelOBP10
Assay type: binding
condition_details: Ka (apparent association constant), DhelOBP10, pH 7.4, 298 K
measurement_kind: pKd
# pKd is unitless: minus log10 of the molar concentration; print number only

Q) What does the record list as pKd for CC1=CCC2C(C1)C2(C)C (stereo not shown) ?
A) 3.15

----------
assay_target: DhelOBP10 (Dastarcus helophoroides, UniProt A0A1I9HZP4)
Sequence (A0A1I9HZP4 20-220): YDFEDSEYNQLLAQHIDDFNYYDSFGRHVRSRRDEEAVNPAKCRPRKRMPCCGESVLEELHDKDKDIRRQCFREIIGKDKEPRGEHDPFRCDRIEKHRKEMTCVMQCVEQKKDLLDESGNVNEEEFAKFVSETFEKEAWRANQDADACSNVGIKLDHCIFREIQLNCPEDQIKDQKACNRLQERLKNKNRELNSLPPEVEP
assay_name: Competitive fluorescence-binding assay with 1-NPN probe, recombinant DhelOBP10
condition_details: DhelOBP10 Ki (dissociation constant), pH7.4; 1-NPN competition; mean ± SEM
measurement_kind: Ki (µM)

- compound: "C=C1CC[C@H]2O[C@]2(C)CC[C@@H]2[C@@H]1CC2(C)C [(−)-caryophyllene oxide]"
  assay_target: "DhelOBP10 (Dastarcus helophoroides, UniProt A0A1I9HZP4)"
  Ki, µM: 15.7
- compound: "C=CC(=C)CCC=C(C)C [myrcene]"
  assay_target: "DhelOBP10 (Dastarcus helophoroides, UniProt A0A1I9HZP4)"
  Ki, µM: 28.7
- compound: "C=C1C2CCC(C2)C1(C)C (centres unmarked) [camphene]"
  assay_target: "DhelOBP10 (Dastarcus helophoroides, UniProt A0A1I9HZP4)"
  Ki, µM: 24.5

P: CC1=CCC2C(C1)C2(C)C (centres unmarked) [3-carene]
Q: CC12CCC(CC1=O)C2(C)C (centres unmarked) [camphor]
Q) Please compare: P and Q . Report which one has the smaller Ki value. Indicate which entry you chose by stating its label.
A) P
(P: 14.5 µM, Q: 33.8 µM)

----------
assay_target: MaltOBP24 (Monochamus alternatus)
assay_name: Competitive fluorescence-binding assay with 1-NPN probe, recombinant MaltOBP24
condition_details: MaltOBP24 Ki (dissociation constant), pH5.0; 1-NPN competition; mean ± SEM
measurement_kind: Ki (µM)

- compound: "C=CC(=C)CCC=C(C)C [myrcene]"
  unit_spec: "µM"
  reported_measurement: 22.4

P: CC1=CCC2C(C1)C2(C)C (centres unmarked) [3-carene]
Q: C=C1CC[C@H]2O[C@]2(C)CC[C@@H]2[C@@H]1CC2(C)C [(−)-caryophyllene oxide]
Q) Please compare: P and Q . Report which one has the smaller Ki value. Indicate which entry you chose by stating its label.
A) P

----------
assay_target: DhelOBP10 (Dastarcus helophoroides)
assay_name: Fluorescence-quenching spectra assay, DhelOBP10
Type: binding
condition_details: Ka (apparent association constant), DhelOBP10, pH 7.4, 289 K
measurement_kind: pKd
# pKd is unitless: minus log10 of the molar concentration; print number only

Q) What does the record list as pKd for CC1=CCC2C(C1)C2(C)C (stereo not shown) [3-carene] ?
A) 3.57
